System: Aspergillus niger
Test: Minimum inhibitory concentration, YAG medium
Assay type: cell-based
Settings: banded MIC grade
RESULT_TYPE: MIC grade, A. NIGER, YAG media

N#Cc1ccc(COCCC2=NN=C(N)SC2)cc1 = 4 (4: <0.2 mg/L)
Cc1cccc(COCCCCC2=NN=C(N)SC2)c1 = 3 (3: 0.2-1 mg/L)
COCCCC1=NN=C(N)SC1 = 4 (4: <0.2 mg/L)
COCCCCCCCC1=NN=C(N)SC1 = 4 (4: <0.2 mg/L)
CCCCCCOCCC1=NN=C(N)SC1 = 4 (4: <0.2 mg/L)

Item: `NC1=NNC(c2cccc3ccccc23)=CS1` | MIC grade, A. NIGER, YAG media: 1 (1: ≥5 mg/L)

Item: `CCCCOC(=O)c1ccc(C2=NN=C(N)SC2)cc1` | MIC grade, A. NIGER, YAG media: 3 (3: 0.2-1 mg/L)

Item: `NC1=NN=C(CCCCOCc2c(F)cccc2Cl)CS1` | MIC grade, A. NIGER, YAG media: 3 (3: 0.2-1 mg/L)

Just for reference, patent US20180201592A1 is where these values come from.
